Reference source for all entries: patent US10968217B2

System: HBsAg
test: HBsAg assay (CLIA of secreted HBsAg in HepG2.2.15 culture supernatant)
Assay type: cell-based, HBV
experimentalSetup: Hepatitis B virus, HepG2.2.15, read-out: IC50 (HBsAg assay)
Task for the reader: assign each of the following molecules its reported IC50.
Quick note: give the figure in µM, leave out the unit.

Q) Provide the documented IC50 with HBsAg as the system for COc1ccc(C(=O)N2CCc3nc(-c4ccccn4)ncc3C2)cc1
A) 10.6

Q) Provide the documented IC50 with HBsAg as the system for CC1c2cnc(-c3ccccn3)nc2CCN1C(=O)c1cncs1 (stereo not shown)
A) 11.5

Q) Provide the documented IC50 with HBsAg as the system for COc1cc(Cl)cc(C(=O)N2CCc3nc(-c4ccccn4)ncc3C2)c1
A) 10

Q) Provide the documented IC50 with HBsAg as the system for O=C(c1ccc(Cl)cc1)N1CCc2nc(-c3ccccn3)ncc2C1
A) 11.4
